Test system: SW1271 complex spheroids with HUVEC/MSC, growth, % test/control
protocol-details: Anticancer human tumor SW1271 cell line growth inhibition [AhR];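 note: spheroids exposed to agents for 7 days before readout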
condition-label: second compound 0.316 µM; first compound 0.000316 µM; stronger effect = lower value
Each entry below carries its reported viability, T/C.
Your answer should be a plain number; it is taken to be in %.

{"compound": "CC[C@@]1(O)C(=O)OCc2c1cc1n(c2=O)Cc2cc3c(CN(C)C)c(O)ccc3nc2-1 + Cc1cncc(-c2nc(NCCc3c[nH]c4ccccc34)c3ncn(C(C)C)c3n2)c1", "viability, T/C (%)": 93.5}
{"compound": "CC[C@@]1(O)C(=O)OCc2c1cc1n(c2=O)Cc2cc3c(CN(C)C)c(O)ccc3nc2-1 + CC(CO)NC(=O)c1cc(-c2ccc(Cl)cc2)nn(-c2cnn(C)c2)c1=O", "viability, T/C (%)": 92.9}

Consider the additional compound presented here.
viability, T/C reported for this compound Cn1ncnc1C1c2n[nH]c(=O)c3cc(F)cc(c23)NC1c1ccc(F)cc1 (stereo not drawn) + CC(CO)NC(=O)c1cc(-c2ccc(Cl)cc2)nn(-c2cnn(C)c2)c1=O : 84.1

====

System: SW1271 complex spheroids with HUVEC/MSC, growth, % test/control
protocol-details: Anticancer human tumor SW1271 cell line growth inhibition [AhR];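 note: spheroids exposed to agents for 7 days before readout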
condition-label: second compound 1 µM; first compound 0.316 µM; stronger effect = lower value
Cut-off 80% on viability, T/C: below means condition met, at or above means condition not met.

Asked: Confirm or reject: viability, T/C of Nc1ccn(C2OC(CO)C(O)C2(F)F)c(=O)n1 (stereo not drawn) + Cc1ccccc1N=Nc1ccc(NC(=O)c2ccnn2C)c(C)c1 lies strictly below 80%
Given back: condition met

Asked: For Nc1ncn(C2CC(O)C(CO)O2)c(=O)n1 (stereo not drawn) + Cc1ccccc1N=Nc1ccc(NC(=O)c2ccnn2C)c(C)c1 , is the recorded viability, T/C below the cut-off of 80%?
Given back: condition met

Asked: Answer whether the compound COc1cccc2c1C(=O)c1c(O)c3c(c(O)c1C2=O)CC(O)(C(=O)CO)CC3OC1CC(N)C(O)C(C)O1 (stereo not drawn) + Cc1cncc(-c2nc(NCCc3c[nH]c4ccccc34)c3ncn(C(C)C)c3n2)c1 has viability, T/C strictly less than 80%
Given back: condition met

Asked: For this compound, is viability, T/C lower than 80%? O=C(C=Cc1cccc(S(=O)(=O)Nc2ccccc2)c1)NO + Cc1ccccc1N=Nc1ccc(NC(=O)c2ccnn2C)c(C)c1
Given back: condition met

Asked: Say whether its viability, T/C is strictly beneath 80%. Entry: CC(C)c1c(-c2ccccc2)nc2c(C#N)c[nH]n2c1=O + Cc1ccccc1N=Nc1ccc(NC(=O)c2ccnn2C)c(C)c1
Given back: condition not met

Asked: I'd appreciate it if you could check whether CC1COCCN1c1cc(C2(S(C)(=N)=O)CC2)nc(-c2ccnc3[nH]ccc23)n1 (stereo not drawn) + Cc1cncc(-c2nc(NCCc3c[nH]c4ccccc34)c3ncn(C(C)C)c3n2)c1 has viability, T/C smaller than 80%.
Given back: condition not met

====

Test system: SW1271 complex spheroids with HUVEC/MSC, growth, % test/control
protocol-details: Anticancer human tumor SW1271 cell line growth inhibition [AhR]; active = viability on the fitted dose curve at most 10% of control; inactive = the rest;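 note: spheroids exposed to agents for 7 days before readout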
condition-label: second compound 1 µM; first compound 10 µM
Valid outcomes are listed here; reply with one: T = active, F = inactive

{"molecule": "COc1cccc2c1C(=O)c1c(O)c3c(c(O)c1C2=O)CC(O)(C(=O)CO)CC3OC1CC(N)C(O)C(C)O1 (stereo not given) + Cc1cncc(-c2nc(NCCc3c[nH]c4ccccc34)c3ncn(C(C)C)c3n2)c1", "group-label": "T"}

Asked: Please indicate how the test categorized CC1(C)CCC(CN2CCN(c3ccc(C(=O)NS(=O)(=O)c4ccc(NCC5CCOCC5)c([N+](=O)[O-])c4)c(Oc4cnc5[nH]ccc5c4)c3)CC2)=C(c2ccc(Cl)cc2)C1 + CC(CO)NC(=O)c1cc(-c2ccc(Cl)cc2)nn(-c2cnn(C)c2)c1=O .
Given back: F

Asked: Hi, sorry to bother you, what did the test record for Nc1ccn(C2OC(CO)C(O)C2(F)F)c(=O)n1 (stereo not given) + CC(CO)NC(=O)c1cc(-c2ccc(Cl)cc2)nn(-c2cnn(C)c2)c1=O ?
Given back: F

Asked: Test call for this molecule, please: O=C(c1cc(Cc2n[nH]c(=O)c3ccccc23)ccc1F)N1CCN(C(=O)C2CC2)CC1 + Cc1ccccc1N=Nc1ccc(NC(=O)c2ccnn2C)c(C)c1
Given back: F

Asked: Entry CC(C)c1c(-c2ccccc2)nc2c(C#N)c[nH]n2c1=O + Cc1cncc(-c2nc(NCCc3c[nH]c4ccccc34)c3ncn(C(C)C)c3n2)c1 : call = ?
Given back: F
